These measurements were taken from PubChem BioAssay (NCI).

Tested on: SK-MEL-5 melanoma
Assay: NCI-60 one-dose screen, 48 h
Settings: 10 µM unless noted
Compounds without any hit were thinned out: in the full panel of roughly 83,000, 20% have a hit. Activity calls are given as the source filed them. How the source made its calls: active means growth percent below 10; inactive means the rest.
Valid outcomes are listed here; reply with one: active, inactive

- molecule: "COP(=O)(OC)C(O)c1ccc(Cl)cc1 (stereo unspecified)"
  group: "inactive"
- molecule: "COc1ccc(S(=O)(=O)Nc2c(/C=C\\c3cc(OC)c(OC)c(OC)c3)ccc(OC)c2O)cc1OC"
  group: "active"
- molecule: "CC(CC1CCCCC1)NCc1ccccc1 (stereo unspecified)"
  group: "inactive"
- molecule: "O=C(Nc1ccc(O)cc1)C(Cl)(Cl)Cl"
  group: "inactive"
- molecule: "Clc1ccc(CO/N=C(\\Cn2ccnc2)c2ccc(Cl)cc2Cl)c(Cl)c1"
  group: "active"
- molecule: "COC(=O)[C@@H](C)C[C@H](Cc1ccccc1)NC(=O)c1csc([C@@H](C[C@H](C(C)C)N(C)C(=O)[C@@H](NC(=O)[C@H]2CCCCN2C)C(C)C)OC(C)=O)n1"
  group: "active"

Hi, do you know how CCOC(=O)N[C@H]1CCc2c(Br)c(OC)c(OC)c(OC)c2-c2ccc(SC)c(=O)cc21 came out in this test?
active

What did the test return for C[C@@H]1C[C@@]2(C)[C@@H](CC[C@@H]3[C@@H]2CC[C@]2(C)C(=O)CC[C@@H]32)CC1=O ?
inactive

Lab log entry: Clc1cccc(Cl)c1Cl — outcome as called in the assay?
inactive

Field: outcome | Entry: O=C(CCCCCCC(=O)Nc1ccc(N(CCCl)CCCl)cc1)NO
active

Which result was noted for this molecule in the test: CCCOC(=O)N[C@H]1CCc2c(Br)c(OC)c(OC)c(OC)c2-c2ccc(SC)c(=O)cc21
active
